# assayed target: UniProt:Q96RI1
# Sequence (Q96RI1 whole entry): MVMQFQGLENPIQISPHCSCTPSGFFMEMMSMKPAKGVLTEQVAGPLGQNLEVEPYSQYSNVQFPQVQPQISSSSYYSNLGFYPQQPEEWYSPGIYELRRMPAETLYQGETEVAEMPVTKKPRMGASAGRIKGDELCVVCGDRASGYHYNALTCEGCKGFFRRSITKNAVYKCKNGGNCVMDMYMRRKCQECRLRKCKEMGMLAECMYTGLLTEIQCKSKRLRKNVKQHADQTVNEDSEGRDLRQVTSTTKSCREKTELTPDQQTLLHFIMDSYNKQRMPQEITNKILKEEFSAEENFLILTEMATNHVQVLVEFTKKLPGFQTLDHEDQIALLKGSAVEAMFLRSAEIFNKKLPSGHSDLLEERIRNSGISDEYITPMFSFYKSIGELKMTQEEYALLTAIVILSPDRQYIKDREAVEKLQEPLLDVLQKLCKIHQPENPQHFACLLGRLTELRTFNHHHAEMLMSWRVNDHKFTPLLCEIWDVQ
# run description: Agonist activity at FXR assessed as activation by cell based luciferase transactivation assay
attribute measured: EC50 (µM)

Solved cases (3 shown):
[
  {
    "mol smiles": "CCOC(=O)C(=Cc1ccc(OCc2ccccc2)cc1)C(=O)OCC",
    "unit symbol": "µM",
    "reading": 6.17
  },
  {
    "mol smiles": "O=C1NN(c2ccccc2)C(=O)/C1=C/c1cccc(OCc2ccc(C(F)(F)F)cc2)c1",
    "unit symbol": "µM",
    "reading": 2.04
  },
  {
    "mol smiles": "Cc1cccc(COc2cccc(/C=C3\\C(=O)NN(C(=O)c4ccncc4)C3=O)c2)c1",
    "unit symbol": "µM",
    "reading": 2.4
  }
]

I. Cc1cccc(COc2cccc(/C=C3\C(=O)NN(C(=O)c4ccc(F)cc4)C3=O)c2)c1
II. Cc1cccc(COc2cccc(/C=C3\C(=O)NN(c4ccccc4)C3=O)c2)c1
Problem: Given the entries I and II , determine which has the lower reported EC50. Which one? Tell me its label.
I

a. O=C1NN(c2ccccc2)C(=O)/C1=C/c1cccc(OCc2cccc(F)c2)c1
b. O=C1NN(c2ccccc2)C(=O)/C1=C/c1cccc(OCc2cccc(C(F)(F)F)c2)c1
Form field 'greater EC50' accepts a or b ; which applies? Returns: label corresponding to the selected item.
b
(b: 6.92 µM, a: 4.79 µM)

A. O=C1NN(C(=O)c2ccccc2)C(=O)/C1=C/c1ccc(OCc2ccccc2)cc1
B. O=C1C(=Cc2ccc(OCc3ccccc3)cc2)C(=O)N(c2ccccc2)N1c1ccccc1
Endpoint returns whichever of A and B has the numerically higher EC50. // return label of chosen record
B

====

# assayed target: Bile acid receptor (Homo sapiens)
# run description: Agonist activity at FXR assessed as activation by cell based luciferase transactivation assay
# Type: functional
attribute measured: EC50 (µM)

[
  {
    "mol smiles": "O=C1C(=Cc2cccc([N+](=O)[O-])c2)C(=O)N(c2ccccc2)N1c1ccccc1",
    "EC50 / µM": 4.27
  }
]

I. Cc1cccc(COc2cccc(/C=C3\C(=O)NN(c4ccccc4[N+](=O)[O-])C3=O)c2)c1
II. O=C1NN(C(=O)c2ccco2)C(=O)/C1=C/c1ccc(OCc2ccccc2)cc1
Between the entries labelled I and II , which has a larger EC50 value on record? In your reply, give the label of the chosen option.
I
(I: 5.37 µM, II: 3.31 µM)
